# Tested on: DeltatarO mutant
# assay_details: S. aureus survival, RN4220 and DeltatarO strains – OD600, teichoic acid synthesis inhibitors, primary screen (AID 463173)
# run_conditions: S. aureus RN4220 wild type/DeltatarO growth, OD600, 18 h, stronger effect = lower value, screened at 18.75 µg/mL (by protocol)
Out of some 52,000 compounds screened, about 4,300 (8.3%) were called active. This is one part of a sample in which actives are shown more often than they occur.
Param label: returns rule met when survival < 90%, returns rule not met otherwise, including exact equality.

{"compound": "CC(=O)N1CCN(c2ccc(NC(=O)COc3ccc(Cl)c(C)c3)cc2)CC1", "group": "rule met"}
{"compound": "Cc1ccc(NC(=O)C2CCCN(S(=O)(=O)c3ccc(F)cc3)C2)cc1 (stereo not given)", "group": "rule met"}
{"compound": "CCc1nn(CCCC(=O)NCc2ccc(OC(C)C)cc2)c(=O)c2cc3occc3n12", "group": "rule met"}
{"compound": "COc1ccccc1NC(=O)CSc1oc(-c2cccs2)nc1S(=O)(=O)c1ccc(Br)cc1", "group": "rule met"}
{"compound": "Cc1ccc(CCNC(=O)CN(c2ccc(C(C)C)cc2)S(=O)(=O)c2c(C)nn(C)c2C)cc1", "group": "rule met"}
{"compound": "COc1ccc(CC(=O)NCCc2sc(-c3cccc(F)c3)nc2C)cc1", "group": "rule met"}
{"compound": "CCOc1ccc(C2C(C(=O)Nc3ccc(C)cc3C)=C(C)Nc3c(C(=O)Nc4ccc(C)cc4)cnn32)cc1OC (stereo not given)", "group": "rule not met"}
{"compound": "Cc1ccc(-n2nc3c(=O)n(C(C)C(=O)O)nc(C)c3c2C)cc1 (stereo not given)", "group": "rule not met"}

====

compounds and their reported survival
# Test system: DeltatarO mutant
# assay_details: S. aureus survival, RN4220 and DeltatarO strains – OD600, teichoic acid synthesis inhibitors, primary screen (AID 463173)
# run_conditions: S. aureus RN4220 wild type/DeltatarO growth, OD600, 18 h, stronger effect = lower value, screened at 18.75 µg/mL (by protocol)
Among all 52,000 compounds or so, about 4,300 (8.3%) were called active. The list comes from a sample in which actives are over-represented; it also holds close analogues and randomly drawn compounds.

{"smiles_entry": "CCc1ccc2oc(C(=O)Nc3nc(-c4ccccc4)ns3)c(C)c2c1", "survival / %": 53}
{"smiles_entry": "Cc1cc2oc(C(=O)Nc3nc(-c4ccccc4)ns3)c(C)c2cc1Cl", "survival / %": 45}
{"smiles_entry": "Cc1ccccc1C(=O)Nc1nc(-c2ccc(Br)cc2)ns1", "survival / %": 49}
{"smiles_entry": "CC1CCN(c2nc3ccccc3nc2SCC(=O)Nc2ccccc2C(C)C)CC1", "survival / %": -1}
{"smiles_entry": "Cc1ccc(Cc2cn3cc(-c4ccccc4)nc3s2)cc1", "survival / %": 66}
{"smiles_entry": "Cc1ccc(C)c(NC(=O)CSc2nc3ccccc3nc2N2CCOCC2)c1", "survival / %": 85}
{"smiles_entry": "CC1(C)CC(=O)C(C=NCCCN2CCCC2=O)=C(O)C1", "survival / %": 94}
{"smiles_entry": "COc1cc(OC)c(NC(=O)CCNS(=O)(=O)c2ccc3c(c2)oc(=O)n3C)cc1Cl", "survival / %": 83}
{"smiles_entry": "COc1ccccc1C(=O)Nc1nc(-c2ccc(Br)cc2)ns1", "survival / %": 86}
{"smiles_entry": "Cc1cccc(NC(=O)CSc2nc3ccccc3nc2N2CCC(C)CC2)c1", "survival / %": 8}
{"smiles_entry": "CC(=O)Nc1ccc(NC(=O)CSc2nc3ccccc3nc2N2CCC(C)CC2)cc1", "survival / %": 75}
